melting point values by entry
PROPERTY_MEASURED: melting point

>  <COMPOUND>
Cc1cc(C)c(NC(=S)Nc2ccccc2)c(=O)[nH]1 [Compound 9a]

>  <PROPERTY_MEASURED>
melting point

>  <READING>
140 to 143 °C

$$$$
>  <COMPOUND>
C=CCNC(=S)Nc1c(-c2cccs2)cc(C)[nH]c1=O [Compound 8c]

>  <PROPERTY_MEASURED>
melting point

>  <READING>
289 to 292 °C

$$$$
>  <COMPOUND>
CC(=O)NC(=S)Nc1c(C)cc(C)[nH]c1=O [Compound 10a]

>  <PROPERTY_MEASURED>
melting point

>  <READING>
273 to 275 °C

$$$$
>  <COMPOUND>
Cc1cc(-c2cccs2)c(NC(=S)NC(=O)c2ccccc2)c(=O)[nH]1 [Compound 11c]

>  <PROPERTY_MEASURED>
melting point

>  <READING>
245 to 249 °C

$$$$
>  <COMPOUND>
CC(=O)NC(=S)Nc1c(-c2ccccc2)cc(C)[nH]c1=O [Compound 10b]

>  <PROPERTY_MEASURED>
melting point

>  <READING>
249 to 251 °C

$$$$
>  <COMPOUND>
Cc1cc(-c2ccccc2)c(NC(=S)Nc2ccccc2)c(=O)[nH]1 [Compound 9b]

>  <PROPERTY_MEASURED>
melting point

>  <READING>
141 to 144 °C

$$$$
>  <COMPOUND>
Cc1cc(-c2cccs2)c(NC(=S)Nc2ccccc2)c(=O)[nH]1 [Compound 9c]

>  <PROPERTY_MEASURED>
melting point

>  <READING>
145 to 147 °C

$$$$
>  <COMPOUND>
Cc1cc(-c2ccccc2)c(NC(=S)NC(=O)c2ccccc2)c(=O)[nH]1 [Compound 11b]

>  <PROPERTY_MEASURED>
melting point

>  <READING>
218 to 220 °C

$$$$
>  <COMPOUND>
CC(=O)NC(=S)Nc1c(-c2cccs2)cc(C)[nH]c1=O [Compound 10c]

>  <PROPERTY_MEASURED>
melting point

>  <READING>
252 to 254 °C

$$$$
>  <COMPOUND>
Cc1cc(C)c(NC(=S)NC(=O)c2ccccc2)c(=O)[nH]1 [Compound 11a]

>  <PROPERTY_MEASURED>
melting point

>  <READING>
230 to 232 °C

$$$$

----------
inhibition at 15000 µM values by entry
- TARGET_DESC: α-glucosidase from Saccharomyces cerevisiae (Saccharomyces cerevisiae)
- Construct: purchased Sigma-Aldrich
- Sequence (P53341 whole entry): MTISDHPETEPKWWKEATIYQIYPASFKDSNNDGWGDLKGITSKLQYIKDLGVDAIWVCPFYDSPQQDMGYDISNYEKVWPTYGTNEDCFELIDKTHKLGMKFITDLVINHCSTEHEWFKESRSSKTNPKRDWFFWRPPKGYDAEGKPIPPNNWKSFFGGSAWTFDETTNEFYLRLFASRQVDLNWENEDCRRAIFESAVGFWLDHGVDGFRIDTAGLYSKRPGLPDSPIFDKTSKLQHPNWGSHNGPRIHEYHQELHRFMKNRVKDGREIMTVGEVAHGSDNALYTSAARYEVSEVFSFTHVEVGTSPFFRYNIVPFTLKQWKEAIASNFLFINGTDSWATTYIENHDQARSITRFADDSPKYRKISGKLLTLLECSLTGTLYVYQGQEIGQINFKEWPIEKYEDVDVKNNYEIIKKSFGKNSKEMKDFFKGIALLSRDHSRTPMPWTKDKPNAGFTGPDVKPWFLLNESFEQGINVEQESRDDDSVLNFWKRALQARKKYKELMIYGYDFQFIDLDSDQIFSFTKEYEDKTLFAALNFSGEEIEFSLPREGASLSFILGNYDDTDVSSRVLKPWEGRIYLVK
- TEST_METHOD_NOTES: biochemical
- Assay type: biochemical
- RUN_CONDITIONS: read-out: Inhibitory Activity of Test Compounds at a Concentration of 15 mM Against the α-Glucosidase Enzyme (%)

>  <MOLECULE>
Cc1cc(C)c(NC(=S)Nc2ccccc2)c(=O)[nH]1 [Compound 9a]

>  <inhibition at 15000 µM, %>
56.6

$$$$
>  <MOLECULE>
Cc1cc(-c2ccccc2)c(NC(=S)Nc2ccccc2)c(=O)[nH]1 [Compound 9b]

>  <inhibition at 15000 µM, %>
35.2

$$$$
>  <MOLECULE>
C=CCNC(=S)Nc1c(-c2ccccc2)cc(C)[nH]c1=O [Compound 8b]

>  <inhibition at 15000 µM, %>
26.9

$$$$
>  <MOLECULE>
C=CCNC(=S)Nc1c(C)cc(C)[nH]c1=O [Compound 8a]

>  <inhibition at 15000 µM, %>
23.3

$$$$
>  <MOLECULE>
Cc1cc(-c2cccs2)c(NC(=S)Nc2ccccc2)c(=O)[nH]1 [Compound 9c]

>  <inhibition at 15000 µM, %>
41.2

$$$$
>  <MOLECULE>
C[C@H]1O[C@H](O[C@H]2[C@H](O)[C@@H](O)[C@@H](O[C@H]3[C@H](O)[C@@H](O)C(O)O[C@@H]3CO)O[C@@H]2CO)[C@H](O)[C@@H](O)[C@@H]1N[C@H]1C=C(CO)[C@@H](O)[C@H](O)[C@H]1O (stereo partly drawn) [Acarbose, reference compound]

>  <inhibition at 15000 µM, %>
46.1

$$$$

Where these numbers come from: paper PMC11314129
